Recorded kon by entry
Assay Target: T1, human PACAP38 (human, not fully specified; C-terminal lysine is amidated; N-terminal or C-terminal biotin in the HTRF and PC-12 cell binding assays)
T1 construct: synthetic peptide, bought; also called huPACAP (1-38)
T1 peptide: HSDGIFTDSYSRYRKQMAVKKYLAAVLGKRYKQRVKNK
Assay Procedure: SPR, Ab immobilised
Endpoint: kon (M⁻¹ s⁻¹)

- anti-PACAP antibody Ab19 (antibody, human IgG1, kappa, N297A, V domains shown, full-length rabbit/human chimeric antibody) VH: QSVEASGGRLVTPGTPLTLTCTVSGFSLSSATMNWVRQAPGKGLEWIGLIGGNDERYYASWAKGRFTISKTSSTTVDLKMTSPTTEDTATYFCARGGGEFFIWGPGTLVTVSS VL: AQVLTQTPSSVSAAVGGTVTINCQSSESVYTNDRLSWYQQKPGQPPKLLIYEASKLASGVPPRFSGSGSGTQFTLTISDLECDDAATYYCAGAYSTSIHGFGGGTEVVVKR: 270000
- anti-PACAP antibody Ab9 (antibody, human IgG1, kappa, N297A, V domains shown, full-length rabbit/human chimeric antibody) VH: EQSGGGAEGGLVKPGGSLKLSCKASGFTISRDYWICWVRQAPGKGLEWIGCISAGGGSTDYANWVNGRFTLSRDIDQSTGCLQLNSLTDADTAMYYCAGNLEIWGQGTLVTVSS VL: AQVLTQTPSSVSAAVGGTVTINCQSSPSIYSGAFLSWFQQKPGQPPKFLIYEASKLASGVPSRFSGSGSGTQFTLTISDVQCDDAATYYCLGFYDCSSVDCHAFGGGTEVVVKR: 820000
- anti-PACAP antibody Ab1.H (antibody, human IgG1, kappa, N297A, V domains shown, humanized form of Ab1, full length) VH: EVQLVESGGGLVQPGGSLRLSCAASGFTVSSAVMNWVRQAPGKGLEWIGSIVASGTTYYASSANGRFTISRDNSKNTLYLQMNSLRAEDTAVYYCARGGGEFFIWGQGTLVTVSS VL: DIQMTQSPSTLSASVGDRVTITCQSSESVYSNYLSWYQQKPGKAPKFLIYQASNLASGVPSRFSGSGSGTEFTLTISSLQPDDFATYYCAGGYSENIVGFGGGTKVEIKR: 470000
